Please respond with reported pIC50 for every item in the list.
# Study system: HCV NS3/4A protease complex (BMS strain, genotype 1a) (Hepatitis C virus genotype 1a, UniProt P27958, C1454S)
# Construct: DNA encoding the recombinant HCV NS3/4A protease complex (amino acids 1027 to 1711) for these strains; inferred from the pET21b vector and Ni-NTA purification; made in house; host or cells: Escherichia coli BL21 (DE3), pET21b
# Sequence (P27958 1658-1714, looked up, stated change not applied): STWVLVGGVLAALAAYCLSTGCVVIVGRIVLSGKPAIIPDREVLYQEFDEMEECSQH
# Sequence (P27958 1027-1657, looked up, stated change not applied): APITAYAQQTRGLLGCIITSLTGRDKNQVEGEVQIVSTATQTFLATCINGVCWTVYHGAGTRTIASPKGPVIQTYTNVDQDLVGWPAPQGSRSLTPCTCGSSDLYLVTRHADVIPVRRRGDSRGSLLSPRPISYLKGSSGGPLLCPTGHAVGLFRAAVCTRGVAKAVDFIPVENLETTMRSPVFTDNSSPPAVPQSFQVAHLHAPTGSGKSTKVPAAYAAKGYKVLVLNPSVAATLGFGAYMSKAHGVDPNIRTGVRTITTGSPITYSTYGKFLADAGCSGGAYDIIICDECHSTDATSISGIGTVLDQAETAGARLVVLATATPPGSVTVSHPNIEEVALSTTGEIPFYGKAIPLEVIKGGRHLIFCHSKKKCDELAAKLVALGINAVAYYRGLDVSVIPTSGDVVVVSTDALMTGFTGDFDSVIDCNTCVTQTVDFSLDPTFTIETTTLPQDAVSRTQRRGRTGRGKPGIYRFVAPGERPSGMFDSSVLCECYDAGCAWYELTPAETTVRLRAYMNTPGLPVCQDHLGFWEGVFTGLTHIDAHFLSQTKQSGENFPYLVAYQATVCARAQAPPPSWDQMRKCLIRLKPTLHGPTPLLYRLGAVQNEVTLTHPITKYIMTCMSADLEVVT
# Measurement description: Recombinant HCV NS3/4A protease complex FRET peptide assay, BMS strain
# Format: biochemical
# Particulars: IC50 range, NS3/4A BMS Strain
pIC50: −log10 of the molar value.

# Compound, Test result
measured = [
    ("C=C[C@@H]1C[C@]1(NC(=O)[C@@H]1C[C@@H](Oc2cc(-c3ccccc3)nc3cc(OC)ccc23)CN1C(=O)[C@@H](NC(=O)OC1(C(=O)OCC)CC1)C(C)(C)C)C(=O)NS(=O)(=O)C1(Cc2ccccc2)CC1 [Compound 81]", "6.30 to 7.30"),
]

Asked: Using the record for C=C[C@@H]1C[C@]1(NC(=O)[C@@H]1C[C@@H](Oc2cc(-c3ccccc3)nc3cc(OC)ccc23)CN1C(=O)[C@@H](NC(=O)[C@@H]1COc2ccccc2O1)C(C)(C)C)C(=O)NS(=O)(=O)C1(Cc2ccccc2)CC1 [Compound 113] , state its measured pIC50.
Given back: 5.30 to 6.30

###

Please respond with reported IC50 for every item in the list.
# Study system: HCV NS3/4A protease complex (BMS strain, genotype 1a) (Hepatitis C virus genotype 1a, UniProt P27958, C1454S)
# Construct: DNA encoding the recombinant HCV NS3/4A protease complex (amino acids 1027 to 1711) for these strains; inferred from the pET21b vector and Ni-NTA purification; made in house; host or cells: Escherichia coli BL21 (DE3), pET21b
# Measurement description: Recombinant HCV NS3/4A protease complex FRET peptide assay, BMS strain
# Format: biochemical
# Particulars: NS3/4A BMS Strain; read-out: IC50 range

# Compound, IC50
data = [
    ("C=CCCCCCCCCC1(S(=O)(=O)NC(=O)C2(NC(=O)C3CC(Oc4cc(-c5ccccc5)nc5cc(OC)ccc45)CN3C(=O)C(NC(=O)OC(C)(C)C)C(C)(C)C)CC2C=C)CC1 (centres unmarked) [Compound 33]", "< 50 nM"),
]

Then this compound:
Asked: Using the record for C=CCCCCCCCC1(S(=O)(=O)NC(=O)C2(NC(=O)C3CC(Oc4cc(-c5ccccc5)nc5cc(OC)ccc45)CN3C(=O)C(NC(=O)OC(C)(C)C)C(C)(C)C)CC2C=C)CC1 (centres unmarked) [Compound 34] , state its measured IC50.
Given back: < 50 nM

###

Please respond with reported IC50 for every item in the list.
# Study system: HCV NS3/4A protease complex (BMS strain, genotype 1a) (Hepatitis C virus genotype 1a, UniProt P27958, C1454S)
# Construct: DNA encoding the recombinant HCV NS3/4A protease complex (amino acids 1027 to 1711) for these strains; inferred from the pET21b vector and Ni-NTA purification; made in house; host or cells: Escherichia coli BL21 (DE3), pET21b
# Measurement description: Recombinant HCV NS3/4A protease complex FRET peptide assay, BMS strain
# Assay type: biochemical
# Particulars: IC50 range, NS3/4A BMS Strain
# Text: The purpose of this in vitro assay was to measure the inhibition of HCV NS3 protease complexes, derived from the BMS, H77C or J416S strains, as described below, by compounds of the present invention. Serum from an HCV-infected patient was obtained from Dr. T. Wright, San Francisco Hospital. […]

# Molecule, Test result
rows = [
    ("COc1ccc2c(O[C@@H]3C[C@@H](C(=O)N[C@]4(C(=O)NS(=O)(=O)C5(Cc6ccccc6)CC5)CC4C4CC4)N(C(=O)[C@@H](NC(=O)OC(C)(C)C)C(C)(C)C)C3)cc(-c3ccccc3)nc2c1 (stereo partly shown) [Compound 204]", "50 to 500 nM"),
    ("C=C[C@@H]1C[C@]1(NC(=O)[C@@H]1C[C@@H](Oc2cc(-c3ccccc3)nc3cc(OC)ccc23)CN1C(=O)[C@@H](NC(=O)OC(C)(C)C)C(C)(C)C)C(=O)NS(=O)(=O)C1(Cc2ccc(F)cc2)CC1 [Compound 40]", "< 50 nM"),
    ("C=C[C@@H]1C[C@]1(NC(=O)[C@@H]1C[C@@H](Oc2cc(-c3ccccc3)nc3cc(OC)ccc23)CN1C(=O)[C@@H](NC(=O)Oc1ccc(C)cc1)C(C)(C)C)C(=O)NS(=O)(=O)C1(Cc2ccccc2)CC1 [Compound 100]", "50 to 500 nM"),
]

Then this molecule:
Asked: Using the record for C=C[C@@H]1C[C@]1(NC(=O)[C@@H]1C[C@@H](Oc2cc(-c3ccccc3)nc3cc(OC)ccc23)CN1C(=O)[C@@H](NC(=O)OC(C)(C)C)C(C)(C)C)C(=O)NS(=O)(=O)C1(CCC)CC1 [Compound 29] , state its measured IC50.
Given back: < 50 nM

###

# Study system: HCV NS3/4A protease complex (BMS strain, genotype 1a) (Hepatitis C virus genotype 1a, UniProt P27958, C1454S)
# Construct: DNA encoding the recombinant HCV NS3/4A protease complex (amino acids 1027 to 1711) for these strains; inferred from the pET21b vector and Ni-NTA purification; made in house; host or cells: Escherichia coli BL21 (DE3), pET21b
# Measurement description: Recombinant HCV NS3/4A protease complex FRET peptide assay, BMS strain
# Format: biochemical
# Particulars: IC50 range, NS3/4A BMS Strain
pIC50: −log10 of the molar value.
Assay endpoint: pIC50

In the examples that follow, each entry is paired with its recorded pIC50.
# Smiles entry, Test result
measured = [
    ("C=C[C@@H]1C[C@]1(NC(=O)[C@@H]1C[C@@H](Oc2cc(-c3ccccc3)nc3cc(OC)ccc23)CN1C(=O)[C@@H](NC(=O)Oc1ccccc1OC)C(C)(C)C)C(=O)NS(=O)(=O)C1(Cc2ccccc2)CC1", "6.30 to 7.30"),
    ("C=C[C@@H]1C[C@]1(NC(=O)[C@@H]1C[C@@H](Oc2cc(-c3ccccc3)nc3cc(OC)ccc23)CN1C(=O)[C@@H](NC(=O)OC(C)(C)C)C(C)C)C(=O)NS(=O)(=O)C1(CC2CC2)CC1", "> 7.30"),
    ("C=C[C@@H]1C[C@]1(NC(=O)[C@@H]1C[C@@H](Oc2ccnc3cc(Cl)ccc23)CN1C(=O)[C@@H](NC(=O)OC1CCCC1)C(C)(C)C)C(=O)NS(=O)(=O)C1(CC2CC2)CC1", "> 7.30"),
]

Then this compound:
Asked: Using the record for `C=C[C@@H]1C[C@]1(NC(=O)[C@@H]1C[C@@H](Oc2cc(-c3ccccc3)nc3cc(OC)ccc23)CN1C(=O)[C@@H](NC(=O)OC(C)(C)C)C(C)(C)C)C(=O)NS(=O)(=O)C1(CCOCc2ccccc2)CC1` , state its measured pIC50.
Given back: > 7.30

###

Please respond with reported IC50 for every item in the list.
# Study system: HCV NS3/4A protease complex (BMS strain, genotype 1a) (Hepatitis C virus genotype 1a, UniProt P27958, C1454S)
# Construct: DNA encoding the recombinant HCV NS3/4A protease complex (amino acids 1027 to 1711) for these strains; inferred from the pET21b vector and Ni-NTA purification; made in house; host or cells: Escherichia coli BL21 (DE3), pET21b
# Measurement description: Recombinant HCV NS3/4A protease complex FRET peptide assay, BMS strain
# Format: biochemical
# Particulars: IC50 range, NS3/4A BMS Strain

In the examples that follow, each entry is paired with its recorded IC50.
# Compound, Test result
data = [
    ("C=C[C@@H]1C[C@]1(NC(=O)[C@@H]1C[C@@H](Oc2cc(-c3ccccc3)nc3cc(OC)ccc23)CN1C(=O)[C@@H](NC(=O)C1CCOCC1)C(C)(C)C)C(=O)NS(=O)(=O)C1(Cc2ccccc2)CC1", "< 50 nM"),
    ("C=C[C@@H]1C[C@]1(NC(=O)[C@@H]1C[C@@H](Oc2cc(-c3ccccc3)nc3cc(OC)ccc23)CN1C(=O)[C@@H](NC(=O)Oc1ccc(OC)cc1)C(C)(C)C)C(=O)NS(=O)(=O)C1(Cc2ccccc2)CC1", "50 to 500 nM"),
    ("C=C[C@@H]1C[C@]1(NC(=O)[C@@H]1C[C@@H](Oc2cc(-c3ccccc3)nc3cc(OC)ccc23)CN1C(=O)[C@@H](NC(=O)OC(C)(C)C)C(C)(C)C)C(=O)NS(=O)(=O)C1(CCOC)CC1", "< 50 nM"),
    ("COc1ccc2c(O[C@@H]3C[C@@H](C(=O)NC4(C(=O)NS(=O)(=O)C5(Cc6ccccc6)CC5)CC4)N(C(=O)[C@@H](NC(=O)OC(C)(C)C)C(C)(C)C)C3)cc(-c3ccccc3)nc2c1", "500 to 5000 nM"),
    ("COc1ccc2c(O[C@@H]3C[C@@H](C(=O)NC4(C(=O)NS(=O)(=O)C5([Si](C)(C)C)CC5)CC4)N(C(=O)[C@@H](NC(=O)OC(C)(C)C)C(C)(C)C)C3)cc(-c3ccccc3)nc2c1", "50 to 500 nM"),
]

Can you give me IC50 for all of these, one by one?
1. C=CC1C[C@]1(NC(=O)[C@@H]1C[C@@H](Oc2cc(-c3ccccc3)nc3cc(OC)ccc23)CN1C(=O)[C@@H](NC(=O)OC(C)(C)C)C(C)(C)C)C(=O)NS(=O)(=O)C1(Br)CC1 (stereo partly drawn)
2. C=C[C@@H]1C[C@]1(NC(=O)[C@@H]1C[C@@H](Oc2cc(C3CC3)nc3cc(OC)ccc23)CN1C(=O)[C@@H](NC(=O)OC(C)(C)C)C(C)(C)C)C(=O)NS(=O)(=O)C1(CC2CC2)CC1
3. C=C[C@@H]1C[C@]1(NC(=O)[C@@H]1C[C@@H](Oc2cc(-c3ccccc3)nc3cc(OC)ccc23)CN1C(=O)[C@@H](NC(=O)Oc1cccc(C(F)(F)F)c1)C(C)(C)C)C(=O)NS(=O)(=O)C1(Cc2ccccc2)CC1
4. C=C[C@@H]1C[C@]1(NC(=O)[C@@H]1C[C@@H](Oc2cc(-c3ccccc3)nc3cc(OC)ccc23)CN1C(=O)[C@@H](NC(=O)OC(C)(C)C)C(C)(C)C)C(=O)NS(=O)(=O)C1([Si](C)(C)C)CC1
5. C=C[C@@H]1C[C@]1(NC(=O)[C@@H]1C[C@@H](Oc2cc(-c3ccccc3)nc3cc(OC)ccc23)CN1C(=O)[C@@H](NC(=O)OC(C)(C)C)C(C)C)C(=O)NS(=O)(=O)C1(COC)CC1
6. C=C[C@@H]1C[C@]1(NC(=O)[C@@H]1C[C@@H](Oc2ccnc3cc(Cl)ccc23)CN1C(=O)[C@@H](NC(=O)OC1CCCC1)C(C)(C)C)C(=O)NS(=O)(=O)C1(CCC)CC1
7. C=C[C@@H]1C[C@]1(NC(=O)[C@@H]1C[C@@H](Oc2cc(-c3ccccc3)nc3cc(OC)ccc23)CN1C(=O)[C@@H](NC(=O)O[C@H]1CCOC1)C(C)(C)C)C(=O)NS(=O)(=O)C1(Cc2ccccc2)CC1
8. COc1ccc2c(O[C@@H]3C[C@@H](C(=O)N[C@]4(C(=O)NS(=O)(=O)C5(CC6CC6)CC5)CC4C4CC4)N(C(=O)[C@@H](NC(=O)OC(C)(C)C)C(C)(C)C)C3)cc(-c3ccccc3)nc2c1 (stereo partly drawn)

Given back:
< 50 nM
< 50 nM
50 to 500 nM
< 50 nM
< 50 nM
< 50 nM
< 50 nM
< 50 nM
